protocol notes: NCI Yeast Anticancer Drug Screen. Data for the rad50 strain (AID 155);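 also: 0% = growth of vehicle-only cultures of the same strain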
protocol conditions: S. cerevisiae rad50 strain growth inhibition; at 50.0 µM (retest, dose inferred, filed as 5.0)
Compounds without any hit were thinned out: in the full panel of roughly 79,000, 15% have a hit. Calls of active or inactive are those of the source. Rule as the data show it: active = growth inhibition above about 70%; inactive = the rest.
Pick one: active, inactive

## Task Please share the test call associated with COc1cc(Br)c(CC(NC=O)c2ccc3c(c2)OCO3)cc1OC (stereo unspecified) .
## Result active

## Task In this assay, the call recorded for CN(C)NC(=S)C(F)(F)F was what?
## Result active

====

protocol notes: NCI Yeast Anticancer Drug Screen. Data for the mec2-1 strain (AID 157)
protocol conditions: S. cerevisiae mec2-1 strain, at 50.0 µM
Compounds without any hit were thinned out: in the full panel of roughly 79,000, 15% have a hit. Active and inactive are the calls of the source. No stated cut-off is given here; in the data, active means growth inhibition above about 70%; inactive means the rest. Where a SMILES comes first, the peptide text is derived from it. [ ]: non-standard residue; d: D form. The star is where a group is joined. mTyr = N[CH](Cc1cccc(O)c1)C(=O)O; Cbz = O=C(OCc1ccccc1)*; OBn = c1ccc(CO*)cc1
Respond only with the outcome that fits, drawn from 1 = active, 0 = inactive

## Task Query: recorded result category for O=C1/C(=C/c2ccccc2)CN(C(=O)C(F)(F)F)C/C1=C\c1ccccc1 in this test
## Result 0

## Task Kindly provide the recorded test outcome for the following compound: CC(C)N1C(=O)C=CC1=O
## Result 1

## Task Hi, do you know how C1CCC(CCNCCC2CCCCC2)CC1 came out in this test?
## Result 1

## Task // param item: CC(=O)OC1CCC2(C)C(=CCC3C2CCC2(C)C3CC(C(N)=O)C2C(C)=O)C1 (configuration not stated) ; yields the recorded call
## Result 0

## Task // outcome(item) with item = COC(=O)C(Cc1cccc(O)c1)NC(=O)C(CC(=O)OCc1ccccc1)NC(=O)OCc1ccccc1 (configuration not stated) (Cbz-Asp(OBn)-[mTyr]-OMe; configuration not given here)
## Result 1

## Task Which result was noted for this compound in the test: Nc1ccc(S(=O)(=O)Nc2nc3ccccc3nc2N2CCCCC2)cc1
## Result 0

## Task What call does the record list for COC(O)C(=O)c1ccc2c(c1)CC1(C2)Cc2cc3c(cc2C1=O)CCC3 (configuration not stated) ?
## Result 0

## Task Given CCC[CH2][Ge]([CH2]CCC)([CH2]CCC)[O]C(=O)CC(=O)c1ccccc1 , state the outcome it received in this test.
## Result 0

## Task Status in this test for C[n+]1c(-c2ccc(/C=N/Nc3ccnc(N/N=C/c4ccc(-c5cn6ccccc6[n+]5C)cc4)n3)cc2)cn2ccccc21 ?
## Result 1

## Task Returns: the outcome recorded for CC1CCCC(C(c2c[nH]c3ccccc23)c2c[nH]c3ccccc23)C1=O (configuration not stated) in this assay.
## Result 0

Continuing:
## Task Recorded test outcome, item O=CC(=O)CC(O)CO (configuration not stated)
## Result 1

## Task Field: outcome | Entry: COc1cc(OC)c(OC)cc1/C=C\c1nccc2ccccc12
## Result 1

## Task // outcome(item) with item = CCCC(=O)Oc1c(Br)cc(Br)cc1Br
## Result 0

====

The following compounds are shown together with reported growth inhibition values.
protocol notes: NCI Yeast Anticancer Drug Screen. Data for the sgs1 mgt1 strain (AID 161);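 also: 0% = growth of cultures given vehicle only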
protocol conditions: S. cerevisiae sgs1 mgt1 strain, at 50.0 µM, stronger effect = higher value
The panel holds about 79,000 compounds, 15% with a hit somewhere; the sample as a whole holds those more often.
Answer in %, number only, no unit symbol.

## Task Sample CC(CO)(CO)N=Cc1cc(I)cc(I)c1O — what was its growth inhibition?
## Result 99.7

## Task Record request: growth inhibition value, item Oc1c(Cl)cc(CN(Cc2cc(Cl)c(O)c(Cl)c2)C2CCCCC2)cc1Cl
## Result 97.6

## Task Tell me the measured growth inhibition of CCN(CC)CCC(=O)c1ccc2c3c(n(C)c2c1)CCCC3 , please.
## Result 83.8

## Task Requested read-out: growth inhibition. Entry: CCOC(=O)Cn1c(=O)c2nc(SC)sc2n(-c2ccc(C)cc2)c1=S
## Result 27.1

## Task Could you tell me which growth inhibition is on file for Cc1cccc(Cc2ccc(Cl)cc2)c1O ?
## Result 99.5

Continuing:
## Task I'd like to know its growth inhibition. The compound in question is CC(Cc1ccccc1)N1C(=O)C=CC1=O (centres undefined)
## Result 93.8

## Task // lookup growth inhibition for CN(C)c1ccccc1CC(c1c[nH]c2ccccc12)c1c[nH]c2ccccc12
## Result 87.6

## Task Record request: growth inhibition value, item O=C(Nc1cccc(Cl)c1)OCCOC(=O)Nc1cccc(Cl)c1
## Result 99.3

## Task Quick one: growth inhibition of CC(O)c1cc(-c2ccc(Cl)cc2)nc2ccccc12 (centres undefined) ?
## Result 98

## Task // growth inhibition lookup, key: Cc1ccc(C(=O)C(CN(C)C)CN(C)C)cc1
## Result 88.5

## Task Given CCCN(CCC)Cc1cc2c(cc1O)CC[C@@H]1[C@@H]2CC[C@]2(C)C(=O)CC[C@@H]12 , state its recorded growth inhibition.
## Result 80.1

## Task State the recorded growth inhibition for this entry: BrCC(Br)Cc1ccc2c(c1)OCO2 (centres undefined)
## Result 49.4

## Task Quick one: growth inhibition for CCN(CC)CC(O)CNc1cc(C)nc(/N=C(\N)Nc2ccc(Cl)c(Cl)c2)n1 (centres undefined) ?
## Result 87

## Task # input compound: CC1(c2ccccc2)OC1C(=O)N(c1ccccc1)c1ccccc1 (centres undefined) ; wanted: its growth inhibition
## Result 53.3

## Task Fill in the blank: the reported growth inhibition of S=c1n(-c2ccc(Cl)cc2)c2nc3ccccc3nc(/c2=N\Nc2cc(Cl)ccc2Cl)n1-c1ccc(Br)cc1 is ____.
## Result 78

## Task Given the entry C1=C(c2ccccc2)C(c2ccccc2)C(c2ccccc2)C/C1=N/OCCN1CCCC1 (centres undefined) , report its measured growth inhibition.
## Result 99.6

## Task Form field: reported growth inhibition of CCCNC(=O)N(CC(C)(C)C)S(=O)(=O)c1ccc(Cl)cc1
## Result 68.3

## Task Report growth inhibition for N#CS/C=C/SC#N please.
## Result 99.5

## Task Find the recorded growth inhibition belonging to Cc1ccc(SCc2nc3ccccc3c(C)[n+]2[O-])cc1 and report it.
## Result 55

## Task Look at this compound and give its reported growth inhibition. Cc1c(-c2ccccc2)sc(/N=C/c2cc(Br)cc(Br)c2O)c1C#N
## Result 29

## Task growth inhibition for Cc1ccc(N=Nc2ncccc2O)cc1C ?
## Result 98.4

## Task Item CCOC(=O)C(=Cc1ccc(C(=O)OC)cc1)C(=O)OCC has what recorded growth inhibition?
## Result 75.3

## Task What does the record list as growth inhibition for CCCCNc1ncc(OCC)c(NCCCC)n1 ?
## Result 92.5

## Task Sample O=C(OC1=C(Br)C(=O)c2ccccc2C1=O)c1ccccc1 — what was its growth inhibition?
## Result 66.3
